- target_under_test: ZmADK2 (Zea mays, UniProt B4FFH8, T4S)
- Sequence (B4FFH8 1-342 T4S): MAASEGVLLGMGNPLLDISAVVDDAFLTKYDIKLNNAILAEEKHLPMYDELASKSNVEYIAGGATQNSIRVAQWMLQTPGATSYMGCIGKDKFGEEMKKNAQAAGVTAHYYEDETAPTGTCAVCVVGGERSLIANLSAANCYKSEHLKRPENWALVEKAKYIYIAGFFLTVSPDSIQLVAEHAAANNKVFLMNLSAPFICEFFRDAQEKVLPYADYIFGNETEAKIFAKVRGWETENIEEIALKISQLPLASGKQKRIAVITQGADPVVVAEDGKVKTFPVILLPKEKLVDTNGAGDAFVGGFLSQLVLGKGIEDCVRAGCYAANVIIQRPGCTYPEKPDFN
- assay_notes: Binding affinity by microscale thermophoresis (MST)
- settings: second KD value, MST, second binding event (ATP site)
Items are presented alongside their recorded Kd.
measured_attribute: Kd

molecule | target_under_test | obs_value
Nc1ncnc2c1ncn2C1OC(COP(=O)(O)O)C(O)C1O (centres unmarked) | ZmADK2 (Zea mays, UniProt B4FFH8, T4S) | 8.3 mM
Nc1ncnc2c1ncn2[C@@H]1O[C@H](CO)[C@@H](O)[C@H]1O | ZmADK2 (Zea mays, UniProt B4FFH8, T4S) | 1.48 mM

###

- target_under_test: UniProt:A0A1D6E5Z5
- Sequence (A0A1D6E5Z5 entry or part of it): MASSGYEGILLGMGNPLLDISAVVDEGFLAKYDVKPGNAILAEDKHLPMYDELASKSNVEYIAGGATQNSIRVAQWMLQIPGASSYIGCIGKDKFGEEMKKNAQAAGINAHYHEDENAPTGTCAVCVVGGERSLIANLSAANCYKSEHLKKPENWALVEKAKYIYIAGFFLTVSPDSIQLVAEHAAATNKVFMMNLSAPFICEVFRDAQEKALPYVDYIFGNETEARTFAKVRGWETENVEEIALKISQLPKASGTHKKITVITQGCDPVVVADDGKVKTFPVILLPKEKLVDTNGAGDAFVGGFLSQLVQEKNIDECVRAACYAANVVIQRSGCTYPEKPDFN
- assay_notes: ADK activity, coupled reaction with PK and LDH
- Assay type: biochemical
- settings: ZmADK3; 100 µM substrate; 10 mM ATP; pH 7.5; 30 °C
Flag rule - Specific activity less than 5 nmol s^–1 mg^–1 flags y; the remaining entries get n.

molecule | answer_label
OC[C@H]1O[C@@H](n2cnc3c(NCc4ccccc4)ncnc32)[C@H](O)[C@@H]1O [BAPR, 6-benzylaminopurine riboside] | n
C/C(=C\CNc1ncnc2c1ncn2[C@@H]1O[C@H](CO)[C@@H](O)[C@H]1O)CO (relative stereo) [tZR, trans-zeatin riboside] | y
CC(C)CNc1ncnc2c1ncn2[C@@H]1O[C@H](CO)[C@@H](O)[C@H]1O [N ^6-IsobutylAdo] | y
CC(C)Nc1ncnc2c1ncn2[C@@H]1O[C@H](CO)[C@@H](O)[C@H]1O [N ^6-IsopropylAdo] | y
Nc1ncnc2c1ncn2[C@@H]1O[C@H](CO)[C@@H](O)[C@H]1O [Ado, adenosine] | n

###

- target_under_test: ZmADK1 (Zea mays, UniProt K7UH13)
- Sequence (K7UH13 entry or part of it): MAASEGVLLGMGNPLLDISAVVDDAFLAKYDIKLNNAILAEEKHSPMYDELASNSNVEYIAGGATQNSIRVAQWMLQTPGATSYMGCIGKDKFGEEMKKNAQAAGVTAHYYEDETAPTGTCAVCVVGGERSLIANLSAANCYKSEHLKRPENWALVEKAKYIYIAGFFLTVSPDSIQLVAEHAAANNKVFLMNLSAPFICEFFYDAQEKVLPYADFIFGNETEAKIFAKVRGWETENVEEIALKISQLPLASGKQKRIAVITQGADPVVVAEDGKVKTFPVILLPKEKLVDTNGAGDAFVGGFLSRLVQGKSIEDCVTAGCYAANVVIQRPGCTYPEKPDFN
- assay_notes: ADK activity, coupled reaction with PK and LDH
- settings: 100 µM substrate, 10 mM ATP, pH 7.5, 30 °C
measured_attribute: log10 of Specific activity (log10 of the value in nmol s^–1 mg^–1)

compound | target_under_test | log10 of Specific activity
Nc1ncnc2c1ncn2[C@@H]1O[C@H](CO)[C@@H](O)[C@H]1O [Ado, adenosine] | ZmADK1 (Zea mays, UniProt K7UH13) | 1.48
CC(C)=CCNc1ncnc2c1ncn2C1OC(CO)C(O)C1O (centres unmarked) [iPR, N ^6-isopentenyl adenosine] | ZmADK1 (Zea mays, UniProt K7UH13) | 0.45
CC(C)Nc1ncnc2c1ncn2[C@@H]1O[C@H](CO)[C@@H](O)[C@H]1O [N ^6-IsopropylAdo] | ZmADK1 (Zea mays, UniProt K7UH13) | 0.34
C/C(=C\CNc1ncnc2c1ncn2[C@@H]1O[C@H](CO)[C@@H](O)[C@H]1O)CO (relative stereo) [tZR, trans-zeatin riboside] | ZmADK1 (Zea mays, UniProt K7UH13) | 0.43
CN(C)c1ncnc2c1ncn2[C@@H]1O[C@H](CO)[C@@H](O)[C@H]1O [N ^6,N^6-DimethylAdo] | ZmADK1 (Zea mays, UniProt K7UH13) | 0.48
CC(C)CNc1ncnc2c1ncn2[C@@H]1O[C@H](CO)[C@@H](O)[C@H]1O [N ^6-IsobutylAdo] | ZmADK1 (Zea mays, UniProt K7UH13) | 0.32
OC[C@H]1O[C@@H](n2cnc3c(NCc4ccccc4)ncnc32)[C@H](O)[C@@H]1O [BAPR, 6-benzylaminopurine riboside] | ZmADK1 (Zea mays, UniProt K7UH13) | 0.52
CNc1ncnc2c1ncn2[C@@H]1O[C@H](CO)[C@@H](O)[C@H]1O [N ^6-MethylAdo, 6-methylamino-9H-purine-9-β-D-riboside] | ZmADK1 (Zea mays, UniProt K7UH13) | 0.43
